Recorded DR/DR LNA, one value per entry.
TEST DESCRIPTION: Probe fluorescence ratio response to linolenic acid relative to ADIFAB2
Type: binding
ASSAY SETUP: response relative to ADIFAB2
Note: the reply should be a number with no unit written.

{"columns": ["MOLECULE", "DR/DR LNA"],
 "data": [
  ["38Y 74F 72A (protein, listed as Rattus norvegicus, PEPTIDE (1)...(131) wild-type rat intestinal fatty acid binding protein) AFDGTWKVDRNENYEKFMEKMGINVVKRKLGAHDNLKYTITQEGNKFTVKESSNFRNIDVVFELGVDFAYSAAFGTELTGTWTMEGNKLVGKFKRVDNGKELIAVREISGNELIQTYTYEGVEAKRIFKKE", 1.166],
  ["73R, 72A (protein, listed as Rattus norvegicus, PEPTIDE (1)...(131) wild-type rat intestinal fatty acid binding protein) AFDGTWKVDRNENYEKFMEKMGINVVKRKLGAHDNLKLTITQEGNKFTVKESSNFRNIDVVFELGVDFAYSARDGTELTGTWTMEGNKLVGKFKRVDNGKELIAVREISGNELIQTYTYEGVEAKRIFKKE", 0.33]
]}

Could you now look at the following molecule, please?
Exam item: Given the entry 18L 55L 73I 72A (protein, listed as Rattus norvegicus, PEPTIDE (1)...(131) wild-type rat intestinal fatty acid binding protein) AFDGTWKVDRNENYEKFLEKMGINVVKRKLGAHDNLKLTITQEGNKFTVKESSNLRNIDVVFELGVDFAYSAIDGTELTGTWTMEGNKLVGKFKRVDNGKELIAVREISGNELIQTYTYEGVEAKRIFKKE , report its measured DR/DR LNA.
Marked response: −0.044

The measurements presented in this section are drawn from patent US20060257938A1.
